MEASUREMENT DESCRIPTION: Intestinal-specific PAMPA
Type: in vitro ADME
MEASUREMENT CONTEXT: pH 6.5
PROPERTY: Papp at 4 h, 500 μM (×10⁻⁶ cm/s)
Write down the numeric answer in ×10⁻⁶ cm/s and omit the unit.

Input line: Look up Papp at 4 h, 500 μM for this compound: COc1ccc(CNC[C@](O)(COCc2ccc(OC)cc2)[C@@H]2CC[C@@H](C)C[C@H]2OCc2ccc(OC)cc2)cc1 [Compound 52a]
Output line: 23.7

Input line: // lookup Papp at 4 h, 500 μM for C[C@@H]1CC[C@@H]([C@@](O)(CNCc2ccccc2)COCc2ccc(F)cc2)[C@H](OCc2ccc(F)cc2)C1 [Compound 44b]
Output line: 23.2

Input line: I would be grateful if you could share the reported Papp at 4 h, 500 μM for C=C(C)[C@@H]1CC[C@@H](C)C[C@H]1OCc1ccc(OC)cc1 .
Output line: 26.1

Input line: Recorded Papp at 4 h, 500 μM of COc1ccc(COC[C@@](O)(CNCc2ccc(F)cc2)[C@@H]2CC[C@@H](C)C[C@H]2OCc2ccc(OC)cc2)cc1 [Compound 51a] , please.
Output line: 19.7
